Molecular target: Nuclear receptor subfamily 1 group I member 3 (Homo sapiens) (UniProt Q14994)
Sequence (Q14994 whole entry, looked up): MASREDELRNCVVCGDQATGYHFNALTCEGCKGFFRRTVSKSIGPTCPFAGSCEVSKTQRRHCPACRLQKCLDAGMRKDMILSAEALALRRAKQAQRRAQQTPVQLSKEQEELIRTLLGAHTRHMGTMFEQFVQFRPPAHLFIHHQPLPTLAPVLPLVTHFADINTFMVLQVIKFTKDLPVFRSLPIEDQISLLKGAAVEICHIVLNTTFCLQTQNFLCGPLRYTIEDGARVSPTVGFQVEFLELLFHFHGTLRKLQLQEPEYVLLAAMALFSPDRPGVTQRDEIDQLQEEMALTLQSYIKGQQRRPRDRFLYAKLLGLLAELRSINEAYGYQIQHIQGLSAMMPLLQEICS
Assay: qHTS assay to identify small molecule agonists of the constitutive androstane receptor (CAR) signaling pathway (AID 1224839); also: nearly all actives have a fitted effect of over 15% in size;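 as to activation: HepG2 cells stably carrying human CAR and a CYP2B6 luciferase reporter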
Conditions: HepG2 hCAR CYP2B6-luciferase, agonist mode, 24 h; series mostly up to 92.4 µM
Source text: National Center for Advancing Translational Sciences [NCATS] NIH Chemical Genomics Center [NCGC] U.S. Environmental Protection Agency [EPA] National Institutes of Environmental Health Sciences [NIEHS] National Toxicology Program [NTP] […] Assay Protocol Summary: A double-stable (hCAR and CYP2B6-2.2kb) transfected cell line, derived from human hepatoma (HepG2) cells, was utilized for the duration of the quantitative high-throughput screens. […]
Inconclusive results are not listed. Activity calls are given as the source filed them. Calls follow the shape of the dose curve; as a rule, active = well fitted activation curve with a large enough effect in the repeat runs; inconclusive = weak or mixed curves; inactive = no such curve, though single readings can be large or run the other way.
Outcomes: active, inactive

compound=CCC(=O)Nc1ccc(Cl)c(Cl)c1 assigned_class=inactive
compound=Oc1ccc(Cl)cc1Cl assigned_class=inactive
compound="COP(=O)(NC(C)=O)SC (stereo unspecified)" assigned_class=inactive
compound=OCCOCCO assigned_class=inactive
compound="CC(C)(c1ccc(OCC2CO2)cc1)c1ccc(OCC2CO2)cc1 (stereo unspecified)" assigned_class=inactive
compound=CC(C)(c1ccccc1)c1ccc(O)c(C(C)(C)c2ccccc2)c1 assigned_class=active
compound=CC[n+]1c(-c2ccccc2)c2cc(N)ccc2c2ccc(N)cc21 assigned_class=inactive
compound=CN(C)c1nc(=O)n(C2CCCCC2)c(=O)n1C assigned_class=inactive
compound=ClC(Cl)(Cl)Br assigned_class=inactive
compound=ClCC(Cl)CCl assigned_class=inactive
compound="CCCCOCC1CO1 (stereo unspecified)" assigned_class=inactive
compound=CNC(=O)CSP(=S)(OC)OC assigned_class=inactive
compound=ClC(Cl)(Cl)c1ccccc1 assigned_class=inactive
compound=CC(C)(O)C#N assigned_class=inactive
compound=CNC(=S)S assigned_class=inactive
compound=CCOP(=O)(OCC)OCC assigned_class=inactive
